Target: Neu5Ac(a2-3)Gal(b1-3)GlcNAc(b1-6)GalNAc
Test: glycan array binding signal (z-score within array); higher = stronger binding
Settings: glycan notation: IUPAC condensed, linker removed
Many of the other results were omitted from the sample, so the strongest signals are more common in it than they were.
readout-label: glycan array binding signal (z-score)

If you can, please state the reported glycan array binding signal (z-score) value of LlpA (Arthrobacter sp) (protein) MGSSHHHHHHSSGLVPRGSHMTLHPETALRPGAAATSPNSRYRLLYQTDGNLVLYGPDGPLWDSGTNGHGAGACIMQADGNLVLYGPNDEYVWDTETDNNPGSRLVIQDDGNAVIYRPDGSPLWATETCQPPGSADSHVLQSGSTLTPTHGIRSANGLYGLLYQTDGNLVFYGPDGPLWDSGTNGRGAGACIMQPDGNLVLYGPHDEYVWDTETDNNPGSRLVIQDDGNAVIYRPDGNPTWVTGTH .
0.849

More entries:
If you can, please state the reported glycan array binding signal (z-score) value of PpFlo1 (Pichia pastoris) (protein) MGSSHHHHHHSSGLVPRGSHMQESGDGDISDSAYACDIDATRYDGFNATIYEFQPGDGRLTRDPVFMSTGYLNRTQLHSITGVTDPGFSIYTPGVPTTTLYGIPNVNWENLLLELKGYFRAEVSGDYGLSLRNIDDSAILFFGKETAFQCCNENSISNEASTDYSLFTIFRQEGDETTNLDSFTYTQYLEAGKYYPVRTFFVNIERHAVFNFTMTLPDGTELTDFHNYIYQFGALDEEQCQA .
-0.067

What would you report for OGAA (protein) MVQKESQATLEERESELSSNPAASAGASLEPPAAPAPGEDNPAGAGGAAVAGAAGGARRFLCGVVEGFYGRPWVMEQRKELFRRLQKWELNTYLYAPKDDYKHRMFWREMYSVEEAEQLMTLISAAREYEIEFIYAISPGLDITFSNPKEVSTLKRKLDQVSQFGCRSFALLFADIDHNMCAADKEVFSSFAHAQVSITNEIYQYLGEPETFLFCPTEYCGTFCYPNVSQSPYLRTVGEKLLPGIEVLWTGPKVVSKEIPVESIEEVSKIIKRAPVIWDNIHANDYDQKRLFLGPYKGRSTELIPRLKGVLTNPNCEFEANYVAIHTLATWYKSNMNGVRKDVVMTDSEDSTVSIQIKLENEGSDEDIETDVLYSPQMALKLALTEWLQEFGVPHQY ?
-0.047

What would you report for EEA (Euonymus europaeus) (protein) MASTIIATGPTYRVYCRAAPNYNMIVGKGVAFLAPIDETNELQYWYKDDTYSYIKDEAGLPAFSLVNKATGLTLKHSNHHPVPVKLVTYNPNVVDESVLWSQADDRGDGYSAIRSLTNPASHLEAAPLNDWSYNGAIIMGGVWIDAYNQQWKIEPHTG ?
-0.187

What would you report for BDCA-2 (Homo sapiens), Q8WTT0 (protein) MVPEEEPQDREKGLWWFQLKVWSMAVVSILLLSVCFTVSSVVPHNFMYSKTVKRLSKLREYQQYHPSLTCVMEGKDIEDWSCCPTPWTSFQSSCYFISTGMQSWTKSQKNCSVMGADLVVINTREEQDFIIQNLKRNSSYFLGLSDPGGRRHWQWVDQTPYNENVTFWHSGEPNNLDERCAIINFRSSEEWGWNDIHCHVPQKSICKMKKIYI ?
-0.169

What would you report for Sebin1 (Coprinopsis cinerea), A8PEE3 (protein) MTSPFYAHIHNVQDDNTWRFTLIFANRATADEWWRAISEAPANTSIAKSITRVTPQYYTHDVNIWNIWNFFADGNIKSISERFRGRLFIVLENDRGGRGITVIPPVPIVDHVSGNWFYIRSKTAPHLFWYYDERRSSIYASKEKRTRFKISIRNPSSQTPKNAIMINTDDVTIHIKENLYVGVDNNLGHIIPTRAYRTFKFGELESGAIAGFDVVENIEERCSSTFDGASLSISGPDSSSPGEPWELV ?
-0.335
